Values from patent US12459951B2

System: Erk1/2 phosphorylation
Test: Erk1/2 Phosphorylation Assay (western blot), Panc-1
Type: cell-based, human
Details: at 10 μM, * = activation
endpoint: % inh of Erk1/2 phosphorylation in Panc-1

>>> print(df.to_string())
                                 chemsmiles            valueobserved
0  COc1cc(Nc2nc(-c3nccn3C)nn3cc(-c4ccn(C5CC5)n4)c(C)c23)ncn1  D* (85-100% activation)
1  Cc1c(-c2ccn(C3CC3)n2)cn2nc(-c3nccn3C)nc(Nc3cc(OCCCN(C)C)ccn3)c12   C* (46-84% activation)
2  Cc1c(-c2ccn(C)n2)cn2nc(-c3nccn3C)nc(Nc3cc(OC4CC4)ccn3)c12  D* (85-100% activation)
3  Cc1c(-c2ccn(C3CC3)n2)cn2nc(-c3nccn3C)nc(Nc3cc(N(C)C)ccn3)c12   C* (46-84% activation)
4  COCCNc1nc(-c2nccn2C)nn2cc(-c3ccn(C(C)C)n3)c(C)c12        0 (0% inhibition)
5  Cc1c(-c2ccn(C)n2)cn2nc(-c3nccn3C)nc(Nc3cc(C4CCC4)[nH]n3)c12   C* (46-84% activation)

====

System: KRas wild type
Assay: Ras GTP Binding Domain Inhibition Assay (Ras Superfamily Assay)
Details: at 20 μM, without SOS
From the text: Biological Example 3: Ras GTP Binding Domain Inhibition Assay The assays described in Example 3 are collectively referred to as the “Ras Superfamily Assay” throughout this application. […] The small GTPases proteins: KRas wild type. KRas Q61H mutant, KRas G12C mutant, KRas G12D mutants, Rac-1, and Rho-A were expressed as His-tagged proteins. In addition, the Guanosine nucleotide Exchange Factor (GEF) Sos protein (residues 556-1049) was expressed as a His-tagged protein. […]
endpoint: KRas wild type: % inh.

>>> print(df.to_string())
                                 chemsmiles                endpoint             valueobserved
0  Cc1c(-c2ccn(C)n2)cn2nc(-c3nccn3C)nc(Nc3cc[nH]n3)c12  KRas wild type: % inh.  A (A = 1-25% inhibition)
1  CO[C@H]1C[C@H](Nc2nc(-c3nccn3C)nn3cc(-c4cccc(CN)c4)c(-c4ccccc4)c23)C1  KRas wild type: % inh.  A (A = 1-25% inhibition)
2  COc1cccc(-c2cn3nc(-c4nccn4C)nc(N[C@H]4C[C@H](OC)C4)c3c2-c2ccccc2)c1C  KRas wild type: % inh.  A (A = 1-25% inhibition)

====

Entries and their inhibition at 20 µM
Target: cdc42 (Homo sapiens, UniProt P60953)
Construct: made in house
Sequence (P60953 whole entry): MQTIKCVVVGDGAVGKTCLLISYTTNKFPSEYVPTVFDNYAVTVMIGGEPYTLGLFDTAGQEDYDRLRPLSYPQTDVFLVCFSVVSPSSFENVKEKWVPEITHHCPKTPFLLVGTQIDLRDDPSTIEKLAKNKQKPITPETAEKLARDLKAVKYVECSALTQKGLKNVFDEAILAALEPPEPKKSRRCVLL
Assay: Cdc42 GTP Binding Domain Inhibition Assay
Details: read-out: Cdc42: % inh.
endpoint: inhibition at 20 µM

>>> df
                                    compound  valueobserved
 0  Cc1c(-c2ccn(C(C)C)n2)cn2nc(-c3nccn3C)nc(Nc3ncccn3)c12 [Compound 54]      50 to 75%
 1  COc1cccc(-c2cn3nc(-c4nccn4C)nc(N[C@H]4C[C@H](OC)C4)c3c2-c2ccccc2)c1Cl [Compound 32]       1 to 25%
 2  COc1cc(Nc2nc(-c3nccn3C)nn3cc(-c4ccn(C(C)C)n4)c(C)c23)n[nH]1 [Compound 51]      50 to 75%
 3  Cc1c(-c2ccn(C(C)C)n2)cn2nc(-c3nccn3C)nc(Nc3cc(C4CC4)no3)c12 [Compound 69]             0%
 4  COc1ccc(Nc2nc(-c3nccn3C)nn3cc(-c4ccn(C(C)C)n4)c(C)c23)nn1 [Compound 74]             0%
 5  COc1cc(Nc2nc(-c3nccn3C)nn3cc(-c4cccc(OC)n4)c(C)c23)ncn1 [Compound 65]      26 to 49%
 6  COCCO[C@H]1C[C@H](Nc2nc(-c3nccn3C)nn3cc(-c4ccn(C(C)C)n4)c(C)c23)C1 [Compound 92]       1 to 25%
 7  Cc1c(-c2ccn(C(C)C)n2)cn2nc(-c3nccn3C)nc(Nc3ccn(C)n3)c12 [Compound 61]     76 to 100%
 8  Cc1c(-c2ccn(C(C)C)n2)cn2nc(-c3nccn3C)nc(Nc3ncco3)c12 [Compound 60]       1 to 25%
 9  COc1cccc(-c2cn3nc(-c4nccn4C)nc(N[C@H]4C[C@H](OC)C4)c3c2-c2ccn(C)n2)c1F [Compound 47]       1 to 25%
10  Cc1c(-c2ccn(C(C)C)n2)cn2nc(-c3nccn3C)nc(Nc3nnco3)c12 [Compound 59]      50 to 75%
11  COc1ccc(Nc2nc(-c3nccn3C)nn3cc(-c4ccn(C(C)C)n4)c(C)c23)cn1 [Compound 71]       1 to 25%
12  Cc1c(-c2ccn(C(C)C)n2)cn2nc(-c3nccn3C)nc(Nc3cnccn3)c12 [Compound 62]       1 to 25%
13  Cc1c(-c2ccn(C(C)C)n2)cn2nc(-c3nccn3C)nc(Nc3cc(C4CC4)n[nH]3)c12 [Compound 68]     76 to 100%
14  COc1cccc(-c2cn3nc(-c4nccn4C)nc(N[C@H]4C[C@H](OC)C4)c3c2-c2ccccc2)c1F [Compound 42]       1 to 25%
15  COc1ccnc(Nc2nc(-c3nccn3C)nn3cc(-c4ccn(C(C)C)n4)c(C)c23)n1 [Compound 53]      50 to 75%
